meta.source: PubChem BioAssay (NCI)

Test system: TK-10 renal
Test: NCI tumour cell line growth inhibition, 48 h
Each entry below lists one item and its recorded TGI value.

| COMPOUND | TGI |
| --- | --- |
| CC[C@@H]1/C=C/C=C/C[C@H](C)[C@@H](O)[C@](C)(O)C(=O)[C@H](C)[C@@H](O)[C@H](C)C(=O)[C@H](C)[C@@H](O)[C@H](C)/C=C/C(=O)O[C@H]2[C@@H](C)[C@@H](CC1)O[C@]1(O[C@H](CC(C)O)[C@H](C)CC1=O)[C@@H]2C (some centres undefined) | 17.9 µM |
| O=C1C2=C(CC3C(C2)C3(Br)Br)C(=O)C2=C1CC1C(C2)C1(Br)Br (centres undefined) | > 100 µM |
| COc1ccc(-c2nc(-c3nc4ccc(C)cc4[nH]3)c3ccccn23)cc1 | 9.22 µM |
| COc1cc(Cc2cc(OC)c(OC)c(OC)c2)ccc1O | > 100 µM |
| Cc1ccc(S(=O)(=O)OC2C3OC(C)(C)OC3OC2C(c2cc(O)c3c(c2O)C(=O)c2ccccc2C3=O)c2cc(O)c3c(c2O)C(=O)c2ccccc2C3=O)cc1 (centres undefined) | > 10 µM |
| Cc1c2c(nn1-c1ccc(S(=O)(=O)/N=C3\SCC(=O)N3C(=O)c3ccccc3)cc1)-c1ccccc1CC2 | > 100 µM |
| O=C(CCc1ccc(O)cc1)NCCc1ccc(O)cc1 | > 100 µM |
| CC12CCCC(CC(=O)c3[nH]c4ccccc4c31)C2 (centres undefined) | > 90.4 µM |
| O=C(c1ccc(Cl)cc1Cl)N(C(=O)N1CCCCC1)c1ccccc1 | > 100 µM |
| O=C(O)C(Sc1ccc(Cl)cc1)Sc1ccc(Cl)cc1 | > 100 µM |
| CN1C(NC(=O)c2ccc(Cl)nc2)=NS(=O)(=O)c2cc(Cl)ccc21 | > 100 µM |
| O=[N+]([O-])c1ccc2nnnn2c1 | > 100 µM |
| CCCCCCCCCCCCCCCCCc1cccc(OCOCCOC)c1CO | > 100 µM |
| CC(=O)NC(CCCN)C(=O)NCc1ccccc1 (centres undefined) | > 100 µM |
| CC(=O)OC1CC2OC(Cc3ccccc32)O1 (centres undefined) | > 100 µM |
| O=c1c2ccccc2nnn1-c1n[nH]c2ccccc12 | > 100 µM |
| O=C(O)C1C(C(=O)O)C(C(=O)O)C1C(=O)O (centres undefined) | > 100 µM |
| Nc1nccc(-c2c(-c3ccc(F)cc3)ncn2CCCN2CCOCC2)n1 | > 25 µM |
| C=C1CC[C@@]2(OC1)OC1C[C@H]3[C@@H]4CC=C5C[C@@H](O)CC(OC6OCC(OC(=O)[C@@H](O)[C@@H](C)CC)C(OC(C)=O)C6OC6OC(C)C(O)C(O)C6O)[C@]5(C)[C@H]4CC[C@]3(C)C1[C@@H]2C (some centres undefined) | 3.87 µM |
